target: SARS-CoV-2 S protein trimer (SARS-CoV-2, UniProt P0DTC2 16-1213); assay: column Fc/S-T (format not explained)
Property: Kd; scope: individual binders
Recorded Endpoint: Kd (µM)

binder="1-29 (antibody, V domains shown) VH: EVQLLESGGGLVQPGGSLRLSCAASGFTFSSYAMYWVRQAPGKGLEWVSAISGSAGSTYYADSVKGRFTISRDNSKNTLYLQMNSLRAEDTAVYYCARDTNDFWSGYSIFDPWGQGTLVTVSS VL: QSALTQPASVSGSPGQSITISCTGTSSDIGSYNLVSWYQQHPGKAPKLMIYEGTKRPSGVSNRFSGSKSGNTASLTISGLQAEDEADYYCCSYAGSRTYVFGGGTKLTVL" observed_result=0.0193
binder="1-17 (antibody, V domains shown) VH: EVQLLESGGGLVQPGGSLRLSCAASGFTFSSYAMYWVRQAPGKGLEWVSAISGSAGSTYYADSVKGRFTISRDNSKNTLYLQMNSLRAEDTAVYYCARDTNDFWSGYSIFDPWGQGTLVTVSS VL: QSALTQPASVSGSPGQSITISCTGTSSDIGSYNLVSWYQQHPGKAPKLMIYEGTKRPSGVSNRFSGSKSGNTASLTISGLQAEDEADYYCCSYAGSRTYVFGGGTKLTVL" observed_result=0.01
binder="1-27 (antibody, V domains shown) VH: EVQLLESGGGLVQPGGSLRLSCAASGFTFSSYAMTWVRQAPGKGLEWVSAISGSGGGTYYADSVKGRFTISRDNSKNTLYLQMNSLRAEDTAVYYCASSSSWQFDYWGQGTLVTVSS VL: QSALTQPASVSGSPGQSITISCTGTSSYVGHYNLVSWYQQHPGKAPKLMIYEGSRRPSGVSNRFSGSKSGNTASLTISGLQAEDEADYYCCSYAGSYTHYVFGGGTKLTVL" observed_result=0.0096
